# system: Metabotropic glutamate receptor 7 (Rattus norvegicus)
# measurement-description: Positive allosteric modulation of rat mGlu7 receptor expressed in HEK293 cells co-expressing Gai5 assessed as potentiation of L-AP4-induced calcium mobilization preincubated for 140 secs and treated with EC20 L-AP4 for 125 secs and followed by subsequent addition of EC80 L-AP4 by Fluo-4-AM dye based fluorescence assay relative to maximal induction of L-AP4
# Assay type: functional, cell-based
# measurement-parameters: filed as positive allosteric modulator, time 140.0 sec
For each entry below, report its Activity value.
Kindly answer with a numeric value in %, unit omitted.

Which value of Activity has been reported for `N#Cc1cnc2c(-n3ccnc3)cccc2c1N1CCN(c2ccccc2F)CC1` in the records?
81

Which value of Activity has been reported for `N#Cc1cnc2c(N3CCCC3)cccc2c1N1CCN(c2ccccc2F)CC1` in the records?
22

Which value of Activity has been reported for N#Cc1cnc2c(OC3CCOC3)cc(F)cc2c1N1CCN(c2ccccc2F)CC1 (stereo not given) in the records?
71

Which value of Activity has been reported for N#Cc1cnc2c(OCC3CCOC3)cccc2c1N1CCN(c2ccccc2F)CC1 (stereo in doubt; (-)-20f) in the records?
89

Which value of Activity has been reported for CC1CN(c2cccc3c(N4CCN(c5ccccc5F)CC4)c(C#N)cnc23)CCO1 (stereo not given) in the records?
84

---

# measurement-description: Volume of distribution at steady state in Sprague-Dawley rat at 0.2 to 0.25 mg/kg, iv measured upto 24 hrs by LC/MS/MS analysis
# Type: ADME, organism-based
# measurement-parameters: in vivo, dose 0.2-0.25 mg/kg, read-out: Vdss
metric-name: Vd (L/kg)
Kindly answer with a numeric value in L/kg, unit omitted.

Which value of Vd has been reported for `COc1cccc2c(N3CCN(c4ccccc4F)CC3)c(C#N)cnc12` in the records?
4.1

---

# system: Metabotropic glutamate receptor 7 (Rattus norvegicus) (UniProt P35400)
# Sequence (P35400 whole entry): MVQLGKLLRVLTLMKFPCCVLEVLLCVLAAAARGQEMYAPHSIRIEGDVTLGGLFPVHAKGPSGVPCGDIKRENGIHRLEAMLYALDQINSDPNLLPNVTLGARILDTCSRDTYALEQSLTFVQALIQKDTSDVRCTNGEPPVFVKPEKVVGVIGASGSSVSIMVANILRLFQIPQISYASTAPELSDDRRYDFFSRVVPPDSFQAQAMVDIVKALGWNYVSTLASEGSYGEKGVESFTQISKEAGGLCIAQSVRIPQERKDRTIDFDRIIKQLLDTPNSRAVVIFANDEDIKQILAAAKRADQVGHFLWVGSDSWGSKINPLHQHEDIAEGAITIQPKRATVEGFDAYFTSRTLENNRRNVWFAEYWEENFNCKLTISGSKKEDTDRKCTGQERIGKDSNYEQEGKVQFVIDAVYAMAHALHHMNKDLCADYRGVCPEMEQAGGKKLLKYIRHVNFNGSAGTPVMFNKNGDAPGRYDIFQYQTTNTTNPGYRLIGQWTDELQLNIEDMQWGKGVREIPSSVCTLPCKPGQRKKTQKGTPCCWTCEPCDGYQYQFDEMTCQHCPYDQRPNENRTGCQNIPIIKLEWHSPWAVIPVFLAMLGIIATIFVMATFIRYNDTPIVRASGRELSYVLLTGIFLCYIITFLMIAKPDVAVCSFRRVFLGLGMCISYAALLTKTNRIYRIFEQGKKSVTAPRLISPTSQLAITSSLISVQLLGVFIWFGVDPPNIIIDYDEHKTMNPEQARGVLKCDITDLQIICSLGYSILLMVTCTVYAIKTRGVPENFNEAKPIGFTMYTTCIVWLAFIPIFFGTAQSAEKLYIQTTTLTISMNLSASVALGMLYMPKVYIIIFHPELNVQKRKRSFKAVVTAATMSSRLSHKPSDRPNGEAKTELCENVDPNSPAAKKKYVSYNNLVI
# measurement-description: Positive allosteric modulation of rat mGlu7 expressed in HEK293 cells co- expressing GIRK assessed as potentiation of L-AP4-induced thallium flux incubated for 140 sec by FluoZin2-AM dye based fluorescence analysis relative to maximal induction of L-AP4
# Assay type: cell-based
# measurement-parameters: filed as positive allosteric modulator
For each entry below, report its Activity value.
Kindly answer with a numeric value in %, unit omitted.

Which value of Activity has been reported for `N#Cc1cnc2c(N3CCOCC3)cccc2c1N1CCN(c2ccccc2F)CC1` in the records?
29.5

Which value of Activity has been reported for `CC(C)Oc1cc(F)cc2c(N3CCN(c4ccccc4F)CC3)c(C#N)cnc12` in the records?
54.5

Which value of Activity has been reported for `COc1cccc2c(N3CCN(c4ccccc4F)CC3)c(C#N)cnc12` in the records?
51.3

Which value of Activity has been reported for N#Cc1cnc2c(OC3CCOC3)cccc2c1N1CCN(c2ccccc2F)CC1 (racemic) in the records?
62.2

---

# measurement-description: Unbound plasma to brain permeability coefficient, Kp of the compound in CD-1 mouse at 10 mg/kg, ip measured after 0.5 hrs by LC-MS/MS analysis
# Type: ADME, organism-based
# measurement-parameters: read-out: K(p,uu,brain)
metric-name: Kp uu at 0.5 h
I only need the number, thanks.

Which value of Kp uu at 0.5 h has been reported for `[2H]C([2H])([2H])Oc1cc(F)cc2c(N3CCN(c4ccccc4F)CC3)c(C#N)cnc12` in the records?
0.23

---

# measurement-description: Fraction unbound in mouse plasma at 5 uM incubated for 4 hrs by equilibrium dialysis based LC-MS/MS analysis
# Assay type: ADME, cell-free
For each entry below, report its fraction unbound at 4 h, 5 µM value.
I only need the number, thanks.

Which value of fraction unbound at 4 h, 5 µM has been reported for N#Cc1cnc2c(OC3CCOC3)cccc2c1N1CCN(c2ccccc2F)CC1 (racemic) in the records?
0.02

Which value of fraction unbound at 4 h, 5 µM has been reported for `COc1cccc2c(N3CCN(c4ccccc4F)CC3)c(C#N)cnc12` in the records?
0.051

Which value of fraction unbound at 4 h, 5 µM has been reported for `[2H]C([2H])([2H])Oc1cc(F)cc2c(N3CCN(c4ccccc4F)CC3)c(C#N)cnc12` in the records?
0.01

Which value of fraction unbound at 4 h, 5 µM has been reported for `COc1cc(F)cc2c(N3CCN(c4ccccc4F)CC3)c(C#N)cnc12` in the records?
0.012

Which value of fraction unbound at 4 h, 5 µM has been reported for `CC(C)Oc1cc(F)cc2c(N3CCN(c4ccccc4F)CC3)c(C#N)cnc12` in the records?
0.004

Which value of fraction unbound at 4 h, 5 µM has been reported for `N#Cc1cnc2c(N3CCOCC3)cccc2c1N1CCN(c2ccccc2F)CC1` in the records?
0.01

---

# system: Metabotropic glutamate receptor 2 (Homo sapiens, UniProt Q14416)
# Sequence (Q14416 whole entry): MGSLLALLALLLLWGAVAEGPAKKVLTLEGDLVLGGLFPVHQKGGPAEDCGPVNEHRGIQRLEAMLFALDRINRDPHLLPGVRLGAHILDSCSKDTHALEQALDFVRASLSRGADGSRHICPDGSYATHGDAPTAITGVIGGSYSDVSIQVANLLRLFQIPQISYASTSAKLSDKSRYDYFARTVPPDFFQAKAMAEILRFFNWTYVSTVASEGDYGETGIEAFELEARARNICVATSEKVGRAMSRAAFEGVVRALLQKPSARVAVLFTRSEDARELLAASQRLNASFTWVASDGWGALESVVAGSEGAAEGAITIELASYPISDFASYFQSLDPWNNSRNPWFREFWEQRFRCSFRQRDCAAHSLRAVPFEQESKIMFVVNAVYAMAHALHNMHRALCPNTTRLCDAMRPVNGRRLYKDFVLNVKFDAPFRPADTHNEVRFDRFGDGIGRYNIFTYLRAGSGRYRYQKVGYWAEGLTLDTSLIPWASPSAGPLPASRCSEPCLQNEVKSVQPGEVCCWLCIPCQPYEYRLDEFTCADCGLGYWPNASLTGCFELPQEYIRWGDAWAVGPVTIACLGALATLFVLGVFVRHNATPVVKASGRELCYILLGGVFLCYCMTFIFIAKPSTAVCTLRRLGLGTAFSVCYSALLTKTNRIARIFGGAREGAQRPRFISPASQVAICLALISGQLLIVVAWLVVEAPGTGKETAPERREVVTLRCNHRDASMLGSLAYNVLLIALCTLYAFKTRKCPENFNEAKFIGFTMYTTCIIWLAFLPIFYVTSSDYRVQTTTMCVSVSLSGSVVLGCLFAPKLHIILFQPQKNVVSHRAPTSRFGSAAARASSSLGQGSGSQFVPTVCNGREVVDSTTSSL
# measurement-description: Negative allosteric modulation of mGlu2 receptor (unknown origin)
pIC50: −log10 of the molar value.
metric-name: pIC50

Which value of pIC50 has been reported for `CCOC(=O)c1cnc2c(OC)cccc2c1N1CCN(c2ccccc2F)CC1` in the records?
< 4.52

---

For each entry below, report its IC50 value.
# system: Sodium-dependent dopamine transporter (Homo sapiens)
# Sequence (Q01959 whole entry): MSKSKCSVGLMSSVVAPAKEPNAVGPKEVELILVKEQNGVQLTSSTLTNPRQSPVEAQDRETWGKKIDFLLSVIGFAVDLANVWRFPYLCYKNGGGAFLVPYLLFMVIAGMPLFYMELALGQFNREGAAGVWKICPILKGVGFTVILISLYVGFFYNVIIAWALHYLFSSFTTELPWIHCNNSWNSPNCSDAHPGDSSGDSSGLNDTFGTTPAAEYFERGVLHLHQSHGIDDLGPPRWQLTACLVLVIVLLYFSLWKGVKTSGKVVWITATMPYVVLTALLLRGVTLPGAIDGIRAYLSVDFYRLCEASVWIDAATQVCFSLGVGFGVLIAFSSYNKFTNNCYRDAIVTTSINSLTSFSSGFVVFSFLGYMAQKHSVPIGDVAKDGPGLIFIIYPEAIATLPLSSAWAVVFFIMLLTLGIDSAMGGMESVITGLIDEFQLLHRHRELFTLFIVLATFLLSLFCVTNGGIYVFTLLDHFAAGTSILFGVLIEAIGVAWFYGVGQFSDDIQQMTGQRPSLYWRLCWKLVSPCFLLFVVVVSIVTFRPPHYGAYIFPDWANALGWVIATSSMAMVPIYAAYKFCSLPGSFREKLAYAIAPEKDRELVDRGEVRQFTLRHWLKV
# measurement-description: Displacement of […] from recombinant human Dopamine transporter after 120 mins by scintillation counting analysis
# Type: ADME
Kindly answer with a numeric value in µM, unit omitted.

Which value of IC50 has been reported for `COc1c(F)c(F)cc2c(N3CCN(c4ccccc4F)CC3)c(C#N)cnc12` in the records?
2.2

Which value of IC50 has been reported for `COc1c(F)ccc2c(N3CCN(c4ccccc4F)CC3)c(C#N)cnc12` in the records?
3

Which value of IC50 has been reported for `COc1ccc(F)c2c(N3CCN(c4ccccc4F)CC3)c(C#N)cnc12` in the records?
4

---

# system: Metabotropic glutamate receptor 1 (Homo sapiens, UniProt Q13255)
# Sequence (Q13255 whole entry): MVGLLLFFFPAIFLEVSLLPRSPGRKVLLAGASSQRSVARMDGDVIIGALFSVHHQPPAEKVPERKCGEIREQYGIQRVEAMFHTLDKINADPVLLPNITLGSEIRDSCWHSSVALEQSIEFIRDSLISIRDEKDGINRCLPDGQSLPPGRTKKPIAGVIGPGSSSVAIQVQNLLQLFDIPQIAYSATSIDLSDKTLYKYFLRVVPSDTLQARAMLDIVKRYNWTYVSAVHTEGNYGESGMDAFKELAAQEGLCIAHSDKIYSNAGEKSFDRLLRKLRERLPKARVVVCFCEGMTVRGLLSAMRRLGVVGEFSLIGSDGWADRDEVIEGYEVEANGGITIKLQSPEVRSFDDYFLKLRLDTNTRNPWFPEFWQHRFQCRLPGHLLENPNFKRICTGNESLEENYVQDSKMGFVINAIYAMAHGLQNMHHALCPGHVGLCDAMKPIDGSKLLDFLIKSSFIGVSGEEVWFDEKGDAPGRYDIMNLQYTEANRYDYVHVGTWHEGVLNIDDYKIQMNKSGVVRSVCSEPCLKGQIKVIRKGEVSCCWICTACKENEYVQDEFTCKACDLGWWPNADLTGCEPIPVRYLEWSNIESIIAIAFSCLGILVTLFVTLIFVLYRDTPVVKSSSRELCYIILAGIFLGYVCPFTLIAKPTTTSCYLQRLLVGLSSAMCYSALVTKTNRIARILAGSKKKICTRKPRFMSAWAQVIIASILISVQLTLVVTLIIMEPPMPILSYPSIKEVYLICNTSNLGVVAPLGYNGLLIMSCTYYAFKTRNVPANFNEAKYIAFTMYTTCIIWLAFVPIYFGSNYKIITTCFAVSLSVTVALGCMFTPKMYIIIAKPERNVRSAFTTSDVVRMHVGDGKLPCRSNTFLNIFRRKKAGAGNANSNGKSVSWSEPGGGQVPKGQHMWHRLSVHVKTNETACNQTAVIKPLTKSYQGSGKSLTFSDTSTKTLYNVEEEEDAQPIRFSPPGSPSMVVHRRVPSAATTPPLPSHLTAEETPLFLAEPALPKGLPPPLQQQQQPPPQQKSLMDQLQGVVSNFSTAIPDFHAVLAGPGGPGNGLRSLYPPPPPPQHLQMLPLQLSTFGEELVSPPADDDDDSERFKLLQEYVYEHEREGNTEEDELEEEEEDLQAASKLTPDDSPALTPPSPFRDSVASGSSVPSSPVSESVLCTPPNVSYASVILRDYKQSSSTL
# measurement-description: Positive allosteric modulation of mGlu1 receptor (unknown origin)
metric-name: EC50

Form: Entry = `[2H]C([2H])([2H])Oc1cc(F)cc2c(N3CCN(c4ccccc4F)CC3)c(C#N)cnc12` | System = Metabotropic glutamate receptor 1 (Homo sapiens, UniProt Q13255) | EC50 = ____
> 30 µM

---

# measurement-description: Half-life in Sprague-Dawley rat at 0.2 to 0.25 mg/kg, iv measured upto 24 hrs by LC/MS/MS analysis
# Format: ADME, organism-based
# measurement-parameters: in vivo, dose 0.2-0.25 mg/kg
metric-name: half-life (min)
Kindly answer with a numeric value in min, unit omitted.

Which value of half-life has been reported for `COc1cccc2c(N3CCN(c4ccccc4F)CC3)c(C#N)cnc12` in the records?
45

---

For each entry below, report its Kp uu at 0.25 h value.
# measurement-description: Unbound plasma to brain permeability coefficient, Kp of the compound in Sprague-Dawley rat at 0.2 mg/kg, iv measured after 0.25 hrs by LC-MS/MS analysis
# Assay type: ADME, organism-based
# measurement-parameters: read-out: K(p,uu,brain)
I only need the number, thanks.

Which value of Kp uu at 0.25 h has been reported for `[2H]C([2H])([2H])Oc1cc(F)cc2c(N3CCN(c4ccccc4F)CC3)c(C#N)cnc12` in the records?
0.96

Which value of Kp uu at 0.25 h has been reported for `N#Cc1cnc2c(N3CCOCC3)cccc2c1N1CCN(c2ccccc2F)CC1` in the records?
1.24

Which value of Kp uu at 0.25 h has been reported for `CC(C)Oc1cc(F)cc2c(N3CCN(c4ccccc4F)CC3)c(C#N)cnc12` in the records?
1

Which value of Kp uu at 0.25 h has been reported for N#Cc1cnc2c(OC3CCOC3)cccc2c1N1CCN(c2ccccc2F)CC1 (racemic) in the records?
0.79

---

# system: Metabotropic glutamate receptor 7 (Rattus norvegicus)
# measurement-description: Positive allosteric modulation of rat mGlu7 receptor expressed in HEK293 cells co-expressing Gai5 assessed as potentiation of L-AP4-induced calcium mobilization preincubated for 140 secs and treated with EC20 L-AP4 for 125 secs and followed by subsequent addition of EC80 L-AP4 by Fluo-4-AM dye based fluorescence assay
# Format: functional, cell-based
# measurement-parameters: read-out: EC50
metric-name: pEC50
Just so you know, pEC50 here is -log10 of the concentration in molar units; reply with that number alone.

Form: Entry = `COc1cc(F)cc2c(N3CCN(c4ccccc4F)CC3)c(C#N)cnc12` | System = Metabotropic glutamate receptor 7 (Rattus norvegicus) | pEC50 = ____
5.85

Form: Entry = `[2H]C([2H])([2H])Oc1cc(F)cc2c(N3CCN(c4ccccc4F)CC3)c(C#N)cnc12` | System = Metabotropic glutamate receptor 7 (Rattus norvegicus) | pEC50 = ____
5.96

---

# system: Metabotropic glutamate receptor 7 (Rattus norvegicus, UniProt P35400)
# Sequence (P35400 whole entry): as the sequence (P35400 whole entry) above
# measurement-description: Positive allosteric modulation of rat mGlu7 receptor expressed in HEK293 cells co-expressing Gai5 assessed as potentiation of L-AP4-induced calcium mobilization preincubated for 140 secs and treated with EC20 L-AP4 for 125 secs and followed by subsequent addition of EC80 L-AP4 by Fluo-4-AM dye based fluorescence assay
# Assay type: functional, cell-based
# measurement-parameters: read-out: EC50
For each entry below, report its pEC50 value.
Just so you know, pEC50 here is -log10 of the concentration in molar units; reply with that number alone.

Which value of pEC50 has been reported for N#Cc1cnc2c(OCC3CCOC3)cccc2c1N1CCN(c2ccccc2F)CC1 (stereo in doubt; (-)-20f) in the records?
5.89

Which value of pEC50 has been reported for N#Cc1cnc2c(OCC3CCOC3)cccc2c1N1CCN(c2ccccc2F)CC1 (single isomer, unassigned; (+)) in the records?
5.72

Which value of pEC50 has been reported for `N#Cc1cnc2c(OC(F)F)cc(F)cc2c1N1CCN(c2ccccc2F)CC1` in the records?
5.42

Which value of pEC50 has been reported for N#Cc1cnc2c(OCC3CCOC3)cc(F)cc2c1N1CCN(c2ccccc2F)CC1 (stereo not given) in the records?
6.19

Which value of pEC50 has been reported for `COc1c(F)ccc2c(N3CCN(c4ccccc4F)CC3)c(C#N)cnc12` in the records?
5.74

Which value of pEC50 has been reported for `COc1c(F)c(F)cc2c(N3CCN(c4ccccc4F)CC3)c(C#N)cnc12` in the records?
5.96

Which value of pEC50 has been reported for N#Cc1cnc2c(OC3CCOC3)cccc2c1N1CCN(c2ccccc2F)CC1 (racemic) in the records?
5.89

Which value of pEC50 has been reported for `COc1cccc2c(N3CCN(c4ccccc4F)CC3)c(C#N)cnc12` in the records?
5.96

Which value of pEC50 has been reported for N#Cc1cnc2c(OC3CCOC3)cccc2c1N1CCN(c2ccccc2F)CC1 (single isomer, unassigned; (+)) in the records?
5.96

Which value of pEC50 has been reported for `CC(C)Oc1cc(F)cc2c(N3CCN(c4ccccc4F)CC3)c(C#N)cnc12` in the records?
6.16

Which value of pEC50 has been reported for CC1CN(c2cccc3c(N4CCN(c5ccccc5F)CC4)c(C#N)cnc23)CCO1 (stereo not given) in the records?
5.15

Which value of pEC50 has been reported for `N#Cc1cnc2c(OC3CCC3)cccc2c1N1CCN(c2ccccc2F)CC1` in the records?
5.74

Which value of pEC50 has been reported for `[2H]C([2H])([2H])Oc1cccc2c(N3CCN(c4ccccc4F)CC3)c(C#N)cnc12` in the records?
5.82
